- System: SERT
- experiment: Baboon PET imaging: brain uptake, kinetic analysis and SERT parameters
- Format: in vivo
- setup.conditions: one-tissue compartment model; baboons, mean ± SD of four experiments
Field: K1 Temporal Cortex. Provide a value for each of the compounds that follow.
Give bare numbers, in mL/g/min.

Batch lookup, K1 Temporal Cortex per entry.
1. CN(C)Cc1ccccc1Sc1ccc(I)cc1N [[^11C]ADAM]
2. [11CH3]Sc1ccc([C@H]2CN3CCC[C@H]3c3ccccc32)cc1 [[^11C]McN 5652]
3. CN(C)Cc1ccccc1Sc1ccc(C#N)cc1N [[^11C]DASB]

1: 1.02; 2: 0.83; 3: 1.05

Batch lookup, K1 Temporal Cortex per entry.
1. CN(C)Cc1ccccc1Sc1ccc(Br)cc1N [[^11C]DAPA]
2. CN([11CH3])Cc1ccccc1Sc1ccc(CF)cc1N [[^11C]AFM]

1. 0.78
2. 1.25

----------
- target.system: serotonin transporter (SERT) (Rattus norvegicus)
- Construct: membranes prepared from either the rat cortical tissues or cells expressed with cloned-human transporters; from tissue; host or cells: rat cortical tissue membranes (inferred; the alternative is cells expressing cloned human SERT)
- Sequence (P31652 whole entry): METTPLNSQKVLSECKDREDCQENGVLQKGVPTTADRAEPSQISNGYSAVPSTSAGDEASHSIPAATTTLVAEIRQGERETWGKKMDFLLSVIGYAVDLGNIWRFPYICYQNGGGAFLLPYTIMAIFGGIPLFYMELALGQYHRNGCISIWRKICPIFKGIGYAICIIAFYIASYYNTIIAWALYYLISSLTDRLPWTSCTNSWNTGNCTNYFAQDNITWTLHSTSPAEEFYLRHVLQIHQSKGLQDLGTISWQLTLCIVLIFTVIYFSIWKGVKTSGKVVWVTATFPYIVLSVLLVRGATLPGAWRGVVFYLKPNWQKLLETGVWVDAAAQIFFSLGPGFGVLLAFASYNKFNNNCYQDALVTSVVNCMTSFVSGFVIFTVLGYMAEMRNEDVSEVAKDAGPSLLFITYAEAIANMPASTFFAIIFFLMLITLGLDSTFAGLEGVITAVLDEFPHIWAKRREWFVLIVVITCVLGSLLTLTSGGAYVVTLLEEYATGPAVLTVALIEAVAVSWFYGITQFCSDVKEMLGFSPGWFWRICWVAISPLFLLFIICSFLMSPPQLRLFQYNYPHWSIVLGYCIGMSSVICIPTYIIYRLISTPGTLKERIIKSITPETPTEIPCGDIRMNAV
- experiment: In vitro binding affinity for SERT, radioligand [^3H]paroxetine (Table 1)
- Parameters: species or system rat or human (cloned)
Field: log10 Ki. Provide a value for each of the compounds that follow.
Give log10 of Ki, with Ki taken in nM.

Known log10 Ki results, listed for orientation:
| molecule | quantity.measured | numeric.readout |
| --- | --- | --- |
| CN(C)Cc1ccccc1Sc1ccc(CCF)cc1N | log10 Ki | 0.27 |
| CN(C)Cc1ccccc1Sc1ccc(I)cc1N | log10 Ki | -0.49 |
| Cc1ccc(Sc2ccccc2CN(C)C)c(N)c1 | log10 Ki | 0.08 |

Batch lookup, log10 Ki per entry.
1. CN(C)Cc1ccccc1Sc1ccc(CCCF)cc1N
2. CN(C)Cc1ccccc1Sc1ccc(CF)cc1N

1. 0.55
2. -0.64

----------
- Test system: SERT
- experiment: Baboon PET imaging: brain uptake, kinetic analysis and SERT parameters
- Type: in vivo
- setup.conditions: baboons, mean ± SD of four experiments
quantity.measured: Regional uptake peak time Striatum (min)
Answers are plain numbers, in min.

Known Regional uptake peak time Striatum results, listed for orientation:
| compound | target.system | numeric.readout |
| --- | --- | --- |
| CN([11CH3])Cc1ccccc1Sc1ccc(CF)cc1N [[^11C]AFM] | SERT | 44 |
| CN(C)Cc1ccccc1Sc1ccc(C#N)cc1N [[^11C]DASB] | SERT | 22 |
| [11CH3]Sc1ccc([C@H]2CN3CCC[C@H]3c3ccccc32)cc1 [[^11C]McN 5652] | SERT | 34 |
| CN(C)Cc1ccccc1Sc1ccc(Br)cc1N [[^11C]DAPA] | SERT | 51 |

Next item in the queue.
Quick one: Regional uptake peak time Striatum for CN(C)Cc1ccccc1Sc1ccc(I)cc1N [[^11C]ADAM] ?
39

----------
Field: Kp. Provide a value for each of the compounds that follow.
- Test system: SERT
- experiment: Baboon PET imaging: brain uptake, kinetic analysis and SERT parameters
- Type: in vivo
- setup.conditions: male, baboon, brain, midbrain, intravenous; one-tissue compartment model; baboons, mean ± SD of four experiments; read-out: VT Midbrain

Known Kp results, listed for orientation:
| compound | Kp |
| --- | --- |
| CN(C)Cc1ccccc1Sc1ccc(C#N)cc1N [[^11C]DASB] | 46.4 |
| CN(C)Cc1ccccc1Sc1ccc(I)cc1N [[^11C]ADAM] | 57 |

Next item in the queue.
Quick one: Kp for CN(C)Cc1ccccc1Sc1ccc(Br)cc1N [[^11C]DAPA] ?
69.2

Origin of the recorded values: patent US20110097274A1
